Tested on: sodium channels
Format: cell-based
RUN CONDITIONS: read-out: IC50 (μM), sodium channel-inhibiting activity; rat fetal cultured hippocampal neurons, SBFI fluorescence in the presence of 4-aminopyridine, 5 minutes after addition, 1 μM tetrodotoxin = 100%
Mark Criterion met for IC50 under 5 µM, Criterion not met if at or over.

Request: Consider O=c1[nH]cccc1CN1CCC(F)(COc2ccccc2F)CC1 . Does its IC50 lie strictly below 5 µM?
Response: Criterion not met

Request: Is IC50 strictly under 5 µM for the entry Cc1ccccc1OCC1CCN(Cc2ncc[nH]c2=O)C1.O=C(O)C(=O)O (stereo not drawn) [Example 136, oxalate] ?
Response: Criterion met

Request: I wonder whether O=c1[nH]cccc1CN1CCC(O)(C#Cc2ccccc2F)CC1 has IC50 below 5 µM. Can you tell?
Response: Criterion met

Request: Find out if reported IC50 for CC(c1ncc[nH]c1=O)N1CCC(C(=O)Cc2ccccc2F)CC1 (stereo not drawn) is less than 5 µM
Response: Criterion not met

Request: API: query returns whether the compound falls strictly under 5 µM in IC50. Query: O=c1[nH]ccnc1CN1CCCC(COc2ccccc2F)CC1 (stereo not drawn)
Response: Criterion met

Request: Could you please tell me whether IC50 recorded for COc1ccccc1CCC1CCN(Cc2ncc[nH]c2=O)C1.O=C(O)C(=O)O (stereo not drawn) [Example 135, oxalate] is less than 5 µM?
Response: Criterion met

Request: Does the reported IC50 of O=c1cncc(CCN2CCC(O)(C#Cc3ccccc3F)CC2)[nH]1 stay below 5 µM?
Response: Criterion not met

Request: API: query returns whether the compound falls strictly under 5 µM in IC50. Query: Cc1ccccc1CC(=O)C1CCN(Cc2ncc[nH]c2=O)CC1
Response: Criterion met
